# Subject Of Test: Recombinant JAK3 (Homo sapiens)
# Construct: purchased Carna Biosciences
# Sequence (P52333 whole entry): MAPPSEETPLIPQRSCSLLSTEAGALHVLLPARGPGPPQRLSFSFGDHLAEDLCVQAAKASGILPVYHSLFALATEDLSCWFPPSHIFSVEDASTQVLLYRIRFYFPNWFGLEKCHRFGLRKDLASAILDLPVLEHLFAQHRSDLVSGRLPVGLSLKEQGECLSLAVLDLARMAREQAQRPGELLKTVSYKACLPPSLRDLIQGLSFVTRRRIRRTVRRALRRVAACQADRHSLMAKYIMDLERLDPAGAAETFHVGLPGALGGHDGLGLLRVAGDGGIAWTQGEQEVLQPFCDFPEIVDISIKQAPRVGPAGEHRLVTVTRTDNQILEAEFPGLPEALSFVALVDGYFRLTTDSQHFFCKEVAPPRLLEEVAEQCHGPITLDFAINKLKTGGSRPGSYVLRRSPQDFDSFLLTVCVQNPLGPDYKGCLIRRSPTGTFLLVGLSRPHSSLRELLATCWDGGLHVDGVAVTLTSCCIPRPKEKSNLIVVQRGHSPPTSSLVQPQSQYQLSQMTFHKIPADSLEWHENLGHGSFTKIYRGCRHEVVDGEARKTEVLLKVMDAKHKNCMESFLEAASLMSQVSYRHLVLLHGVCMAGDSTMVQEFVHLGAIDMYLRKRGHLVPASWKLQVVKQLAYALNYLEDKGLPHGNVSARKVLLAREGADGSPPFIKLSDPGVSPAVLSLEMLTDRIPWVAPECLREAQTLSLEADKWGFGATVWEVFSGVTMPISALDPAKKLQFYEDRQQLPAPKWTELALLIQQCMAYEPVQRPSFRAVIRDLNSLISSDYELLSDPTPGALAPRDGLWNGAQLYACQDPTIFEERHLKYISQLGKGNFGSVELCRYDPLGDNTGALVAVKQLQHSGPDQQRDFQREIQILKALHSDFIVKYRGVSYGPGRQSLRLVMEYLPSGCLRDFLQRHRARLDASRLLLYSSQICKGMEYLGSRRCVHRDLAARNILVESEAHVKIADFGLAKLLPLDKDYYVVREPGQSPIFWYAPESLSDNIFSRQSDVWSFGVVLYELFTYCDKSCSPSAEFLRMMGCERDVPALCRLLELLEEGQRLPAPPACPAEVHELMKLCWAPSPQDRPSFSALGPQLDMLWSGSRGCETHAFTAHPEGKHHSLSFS
# Assay Comment: JAK biochemical assay (LANCE Ultra TR-FRET), JAK3
# Conditions Used: read-out: Biochemical IC50 (nM) JAK3
Measured Endpoint: IC50 (nM)

| Compound | Units Symbol | IC50 |
| --- | --- | --- |
| CS(=O)(=O)CC[C@@H](c1ccc(-n2cc(-c3ccnc4[nH]cnc34)cn2)nc1)C(F)(F)F [Example 1181] | nM | 42 |

[a] CN1CCC(C(O)(c2ccc(-n3cc(-c4ccnc5[nH]cnc45)cn3)nc2)C(F)(F)F)CC1 (stereo not drawn) [Example 1133]
[b] CC(C)NC(=O)CC[C@@H](c1ccc(-n2cc(-c3ccnc4[nH]cnc34)cn2)nc1)C(F)(F)F [Example 1215]
**Query** Select the item with the higher value of IC50 from the options a and b listed. Label of pick, please.
**Result** a

---

# Subject Of Test: Recombinant TYK2 (Homo sapiens, UniProt P29597)
# Construct: purchased Carna Biosciences
# Sequence (P29597 whole entry): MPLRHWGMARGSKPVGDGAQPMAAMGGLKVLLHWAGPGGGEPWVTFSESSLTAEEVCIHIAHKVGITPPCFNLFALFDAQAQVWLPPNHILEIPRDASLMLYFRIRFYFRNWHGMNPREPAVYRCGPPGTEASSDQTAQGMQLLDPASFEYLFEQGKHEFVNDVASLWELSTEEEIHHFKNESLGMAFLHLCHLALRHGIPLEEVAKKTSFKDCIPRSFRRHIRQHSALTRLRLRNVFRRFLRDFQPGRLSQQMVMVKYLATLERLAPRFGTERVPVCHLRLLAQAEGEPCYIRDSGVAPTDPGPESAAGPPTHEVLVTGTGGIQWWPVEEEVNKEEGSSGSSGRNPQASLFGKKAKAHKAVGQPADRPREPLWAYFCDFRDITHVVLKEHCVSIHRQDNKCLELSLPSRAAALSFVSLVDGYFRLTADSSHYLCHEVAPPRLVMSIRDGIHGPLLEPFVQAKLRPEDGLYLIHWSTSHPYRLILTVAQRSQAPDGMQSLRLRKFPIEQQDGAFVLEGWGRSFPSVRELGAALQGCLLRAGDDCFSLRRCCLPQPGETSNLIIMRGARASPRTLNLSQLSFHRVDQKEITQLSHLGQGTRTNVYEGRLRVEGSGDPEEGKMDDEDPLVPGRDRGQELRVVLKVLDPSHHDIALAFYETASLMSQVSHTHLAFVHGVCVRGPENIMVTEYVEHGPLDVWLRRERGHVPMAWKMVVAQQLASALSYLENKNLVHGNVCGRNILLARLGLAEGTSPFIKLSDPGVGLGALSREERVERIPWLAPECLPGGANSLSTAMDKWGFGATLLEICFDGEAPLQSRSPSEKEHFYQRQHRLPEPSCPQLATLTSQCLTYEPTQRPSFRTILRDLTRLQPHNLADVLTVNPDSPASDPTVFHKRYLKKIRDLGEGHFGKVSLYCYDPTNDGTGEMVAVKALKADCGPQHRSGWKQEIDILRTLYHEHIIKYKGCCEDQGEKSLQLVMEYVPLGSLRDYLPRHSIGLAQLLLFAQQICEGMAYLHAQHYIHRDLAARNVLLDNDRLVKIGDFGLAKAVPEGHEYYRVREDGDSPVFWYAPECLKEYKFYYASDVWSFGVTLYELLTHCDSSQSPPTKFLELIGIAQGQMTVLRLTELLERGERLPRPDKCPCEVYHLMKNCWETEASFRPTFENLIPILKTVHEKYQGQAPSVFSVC
# Assay Comment: JAK biochemical assay (LANCE Ultra TR-FRET), TYK2
# Conditions Used: recombinant TYK2, TR-FRET; read-out: Biochemical Assay (μM) TYK2
Where a name gives a salt, the structure may show the parent alone.
Measured IC50 by item

# annotated cases, reported IC50 shown
| Compound | Value Observed |
| --- | --- |
| N#CCC(C1CCCC1)n1cc(-c2ccnc3[nH]c(-c4ccccc4)nc23)cn1 (stereo not drawn) [Example 1180] | < 1 µM |
| OC(c1ccc(-n2cc(-c3ccnc4[nH]cnc34)cn2)nc1)(C1CCNCC1)C(F)(F)F (stereo not drawn) [Example 1135] | < 0.1 µM |
| OC(c1ccc(-n2cc(-c3ccnc4[nH]cnc34)cn2)nc1)(C1CCCC1)C(F)(F)F (stereo not drawn) [Example 1132] | > 1 µM |
| CN(CCC(c1ccc(-n2cc(-c3ccnc4[nH]cnc34)cn2)nc1)C(F)(F)F)C1CC1 (stereo not drawn) [Example 1195] | > 1 µM |
| COC(c1ccc(-n2cc(-c3ccnc4[nH]cnc34)cn2)nc1)(C1CCN(C)CC1)C(F)(F)F (stereo not drawn) [Example 1244] | > 1 µM |

**Query** May I ask what IC50 has been recorded for O=C(NC(C1CCCC1)C(F)(F)F)n1cc(-c2ccnc3[nH]c(=O)[nH]c23)cn1 (stereo not drawn) [Example 1041] ?
**Result** > 1 µM

**Query** Try this compound too: CC(C)NCCOC(c1ccc(-n2cc(-c3ccnc4[nH]cnc34)cn2)nc1)C(F)(F)F (stereo not drawn) [Example 1241, TFA salt]
**Result** > 1 µM

**Query** Try this compound too: O=C1Cc2c(-c3cnn(C(=O)NCC(F)(F)F)c3)ccnc2N1 [Example 1045]
**Result** > 1 µM

**Query** Try this compound too: OC(c1ccc(-n2cc(-c3ccnc4[nH]cnc34)cn2)cn1)C(F)(F)F (stereo not drawn) [Example 1173]
**Result** > 1 µM

**Query** Try this compound too: N#CCC(NC(=O)n1cc(-c2ccnc3[nH]c(=O)[nH]c23)cn1)C1CC1 (stereo not drawn) [Example 1051]
**Result** < 0.5 µM

**Query** Try this compound too: O=C(CC(c1ccc(-n2cc(-c3ccnc4[nH]cnc34)cn2)nc1)C(F)(F)F)N1CCOCC1 (stereo not drawn) [Example 1249]
**Result** > 1 µM

Reference for the values: patent US12516056B2
